Tested on: HepG2 cells
Experiment: HepG2 cytotoxicity assay
Format: cell-based
Details: HepG2 cells; mean
Here the recorded HepG2 cells mean TOX50 is given for each entry.
attribute_measured: HepG2 cells mean TOX50 (µM)

compound="CC(C)c1ccc(CN2CCC(CNC(=O)c3cc(-c4cccc(Cl)c4)cs3)C2)cc1.O=C(O)C(F)(F)F (stereo not shown)" value_modifier== obs_value=6.53
compound=C=CCN(C(=O)c1ccc(Cl)c([N+](=O)[O-])c1)c1nc(-c2ccccc2)cs1 value_modifier=> obs_value=100
compound=COc1ccc(CNC2CCN(C)CC2)cc1-c1ccc(S(=O)(=O)NCc2ccccc2)s1.O=C(O)C(F)(F)F value_modifier== obs_value=5.50
compound="COc1cccc(-c2csc(C(=O)NCC3CCN(Cc4ccc(C(C)(C)C)cc4)C3)c2)c1.O=C(O)C(F)(F)F (stereo not shown)" value_modifier== obs_value=5.78
compound=Br.Oc1ccc(CCNCCCCCCNCCc2ccc(-c3ccccc3)cc2)cc1O value_modifier== obs_value=13.18
compound=Cc1[nH]c(C)c(-c2ccc(CCc3ccc(F)cc3F)cc2)c(=O)c1Cl value_modifier=> obs_value=100
compound="O=C(NCC1CCN(Cc2cccc(C(F)(F)F)c2)C1)c1cc(-c2cccc(C(F)(F)F)c2)cs1.O=C(O)C(F)(F)F (stereo not shown)" value_modifier== obs_value=16.22

* * *

Here the recorded pIC50 is given for each entry.
Tested on: P. falciparum stage V female gametocytes
Experiment: P. falciparum female gametocyte activation assay (Pf FGAA), 24 h or 48 h preincubation, Pfs25 expression readout
Format: cell-based, Plasmodium falciparum NF54
Conditions: P. falciparum female gametocytes; mean; read-out: Gametocytes mean Pf FGAA IC50
pIC50: −log10 of the molar value.
attribute_measured: pIC50

compound=Cc1cccc2nc(-c3ccc(-c4ccc(CNCc5ccc(CN)cc5)cc4)s3)[nH]c12.O=C(O)C(F)(F)F target_entity="P. falciparum stage V female gametocytes" obs_value=6.33
compound=Cc1cccc2nc(-c3ccc(-c4ccc(CNCCN5CCNCC5)cc4)s3)[nH]c12.O=C(O)C(F)(F)F target_entity="P. falciparum stage V female gametocytes" obs_value=5.82
compound="Oc1c(C(Nc2ccccn2)c2ccc(Cl)cc2Cl)ccc2cccnc12 (centres unmarked)" target_entity="P. falciparum stage V female gametocytes" obs_value=5.94
compound=CCn1c(Sc2ccc([N+](=O)[O-])c(C#N)c2)nnc1-c1cccc(Cl)c1 target_entity="P. falciparum stage V female gametocytes" obs_value=5.87
compound=O=C(c1ccc([N+](=O)[O-])o1)N1CCN(c2nc3c(F)cc(F)cc3s2)CC1 target_entity="P. falciparum stage V female gametocytes" obs_value=5.88
compound=CC(C)(C)Nc1cc(C2CC2)nc(-c2ccccn2)n1 target_entity="P. falciparum stage V female gametocytes" obs_value=7.00
compound=O=S(=O)(Nc1cccc(F)c1CNCc1ccccn1)c1ccc(Cl)c(Cl)c1 target_entity="P. falciparum stage V female gametocytes" obs_value=5.87
compound=NCc1ccc(CNCc2cccc(-c3ccc(-c4nc5cc(C(F)(F)F)ccc5[nH]4)cc3)c2)cc1.O=C(O)C(F)(F)F target_entity="P. falciparum stage V female gametocytes" obs_value=6.08

* * *

Here the recorded IC50 is given for each entry.
Tested on: P. falciparum stage V female gametocytes
Experiment: P. falciparum female gametocyte activation assay (Pf FGAA), 24 h or 48 h preincubation, Pfs25 expression readout
Assay type: cell-based, Plasmodium falciparum NF54
Settings: P. falciparum female gametocytes; mean; read-out: Gametocytes mean Pf FGAA IC50
attribute_measured: IC50 (nM)

compound="CC(C)(C)c1ccc(CN2CCC(CNC(=O)c3cc(-c4cccc(F)c4)cs3)C2)cc1.O=C(O)C(F)(F)F (stereo not shown)" obs_value=1320
compound=COc1ccc(CNC2Cc3ccccc3C2)cc1-c1ccc(S(=O)(=O)NCCN2CCCC2)c(F)c1.O=C(O)C(F)(F)F obs_value=1950
compound=CCCCN(CCCC)/C(=N/C(=N)NCc1ccc(Cl)c(Cl)c1)NCCCCCCN/C(=N\C(=N)NCc1ccc(Cl)c(Cl)c1)N(CCCC)CCCC obs_value=2510
compound=COc1cccc(OC)c1CN1CCC(N(C)CCCCCCCCCN2CCC(OC(=O)Nc3ccccc3-c3ccccc3)CC2)CC1 obs_value=1310
compound="CN1CCCC1CCNCc1cccc(-c2cnc(N3CCCC(C)(C)C3)nc2)c1 (stereo not shown)" obs_value=1670
compound=O=C(O)C(F)(F)F.O=S(=O)(NCCN1CCCC1)c1cccc(-c2ccc(CNC3Cc4ccccc4C3)cc2)c1 obs_value=3100
compound="CC(C)(C)c1ccc(CN2CCC(CNC(=O)c3cc(-c4cccc(Cl)c4)cs3)C2)cc1.O=C(O)C(F)(F)F (stereo not shown)" obs_value=990

* * *

System: HepG2 cells
Assay: HepG2 cytotoxicity assay
Format: cell-based
Conditions: HepG2 cells; mean
attribute_measured: HepG2 cells mean TOX50 (µM)

compound=Br.CC(C)(Cc1ccc(Cl)cc1)NCCCCCCNCCc1ccc(O)c(O)c1 attribute_measured="HepG2 cells mean TOX50" value_modifier== obs_value=10.97
compound="CN1CCCC1CCNCc1cccc(-c2cnc(N3CCCC(C)(C)C3)nc2)c1 (stereo not drawn)" attribute_measured="HepG2 cells mean TOX50" value_modifier== obs_value=4.63
compound=c1ccc(CNc2cc(-c3ccccn3)nc(-c3ccccn3)n2)cc1 attribute_measured="HepG2 cells mean TOX50" value_modifier== obs_value=13.04
compound=FC(F)(F)c1ccc2[nH]c(-c3ccc(-c4ccc(CNCCN5CCNCC5)cc4)s3)nc2c1.O=C(O)C(F)(F)F attribute_measured="HepG2 cells mean TOX50" value_modifier== obs_value=12.88
compound=CCN(CCNS(C)(=O)=O)c1ccc(N)c(C)c1.O.O=S(=O)(O)O attribute_measured="HepG2 cells mean TOX50" value_modifier== obs_value=26.14
compound="CCc1c(CCNCCCCCCNC(C)Cc2ccc3c(c2CC)OCO3)ccc(OC)c1OC.Cl (stereo not drawn)" attribute_measured="HepG2 cells mean TOX50" value_modifier== obs_value=2.46
compound=Cn1c(Sc2ncnc3sccc23)nc2ccccc21 attribute_measured="HepG2 cells mean TOX50" value_modifier=> obs_value=100
compound=Cc1ccc(-c2nc3cc(NC(=O)c4ccc([N+](=O)[O-])o4)ccc3o2)cc1Cl attribute_measured="HepG2 cells mean TOX50" value_modifier== obs_value=1.72
compound=O=C(c1ccc([N+](=O)[O-])o1)N1CCC(Cc2ccc(C(F)(F)F)cc2)CC1 attribute_measured="HepG2 cells mean TOX50" value_modifier== obs_value=27.05
compound=FC(F)(F)c1cnc(Sc2nnc(-c3ccncc3)o2)c(Cl)c1 attribute_measured="HepG2 cells mean TOX50" value_modifier=> obs_value=100
compound="CC(C)c1ccc(CN2CCC(CNC(=O)c3cc(-c4ccc(N(C)C)cc4)cs3)C2)cc1.O=C(O)C(F)(F)F (stereo not drawn)" attribute_measured="HepG2 cells mean TOX50" value_modifier== obs_value=5.85
compound=NCCCCNc1cc(-c2ccnc(Nc3cccc(Cl)c3)n2)ccn1 attribute_measured="HepG2 cells mean TOX50" value_modifier== obs_value=0.67
compound=CCc1c(CCNC/C=C/C=C/CNCCc2ccc(OC)c(OC)c2CC)ccc(OC)c1OC.Cl attribute_measured="HepG2 cells mean TOX50" value_modifier== obs_value=4.68
compound="[O-][s+]1c(Cl)c(-c2ccc(Cl)cc2)c2ccc(Cl)cc21 (stereo not drawn)" attribute_measured="HepG2 cells mean TOX50" value_modifier== obs_value=11.35
compound=C[C@H](Cc1ccc(CCc2ccc(C[C@@H](C)NC[C@H](O)c3cccc(Cl)c3)cc2)cc1)NC[C@H](O)c1cccc(Cl)c1.Cl attribute_measured="HepG2 cells mean TOX50" value_modifier== obs_value=4.27
compound=C[C@H](Cc1ccc(C[C@@H](C)NC[C@H](O)c2cccc(Cl)c2)cc1)NC[C@H](O)COc1ccccc1.Cl attribute_measured="HepG2 cells mean TOX50" value_modifier== obs_value=5.19
compound=CCc1c(CCNCCCCCCNCCc2ccc([N+](=O)[O-])cc2)ccc(OC)c1OC.Cl attribute_measured="HepG2 cells mean TOX50" value_modifier== obs_value=4.57
compound=COc1ccc(CNC2Cc3ccccc3C2)cc1-c1ccc(S(=O)(=O)NCCN2CCCC2)s1.O=C(O)C(F)(F)F attribute_measured="HepG2 cells mean TOX50" value_modifier== obs_value=5.31
compound=N=C(/N=C(/NCCCCCCN/C(=N/C(=N)NCc1ccc(Cl)c(Cl)c1)N1CCCCC1)N1CCCCC1)NCc1ccc(Cl)c(Cl)c1 attribute_measured="HepG2 cells mean TOX50" value_modifier== obs_value=43.18
compound=CN1CCC(NCc2cccc(-c3ccc(S(=O)(=O)NCc4ccccc4)c(F)c3)c2)CC1.O=C(O)C(F)(F)F attribute_measured="HepG2 cells mean TOX50" value_modifier== obs_value=5.13
compound=CCCCN(CCCC)/C(=N/C(=N)NCc1ccc(Cl)c(Cl)c1)NCCCCCCN/C(=N\C(=N)NCc1ccc(Cl)c(Cl)c1)N(CCCC)CCCC attribute_measured="HepG2 cells mean TOX50" value_modifier== obs_value=13.96
compound="O=C(NCC1CCN(Cc2cccc(C(F)(F)F)c2)C1)c1cc(-c2cccc(Cl)c2)cs1.O=C(O)C(F)(F)F (stereo not drawn)" attribute_measured="HepG2 cells mean TOX50" value_modifier== obs_value=16.03
compound=N=C(/N=C(/NCCCCCCN/C(=N\C(=N)Nc1ccc(Cl)cc1)N1CCCCC1)N1CCCCC1)Nc1ccc(Cl)cc1 attribute_measured="HepG2 cells mean TOX50" value_modifier== obs_value=44.23
compound=FC(F)(F)c1ccc2[nH]c(-c3ccc(-c4cccc(CN5CCC(CCN6CCCCC6)CC5)c4)cc3)nc2c1.O=C(O)C(F)(F)F attribute_measured="HepG2 cells mean TOX50" value_modifier== obs_value=4.45
compound="CC(C)c1ccc(CN2CCC(CNC(=O)c3cc(-c4cccc(C(F)(F)F)c4)cs3)C2)cc1.O=C(O)C(F)(F)F (stereo not drawn)" attribute_measured="HepG2 cells mean TOX50" value_modifier== obs_value=5.13
compound="CN(C)c1ccc(-c2csc(C(=O)NCC3CCN(Cc4cccc(C(F)(F)F)c4)C3)c2)cc1.O=C(O)C(F)(F)F (stereo not drawn)" attribute_measured="HepG2 cells mean TOX50" value_modifier== obs_value=8.18
compound=Cc1n[nH]c2ccc(-c3ccc4nccc(N5CCC(N)CC5)c4c3)cc12.Cl attribute_measured="HepG2 cells mean TOX50" value_modifier== obs_value=6.88
compound=Cc1sc2ncnc(Sc3nnc(N)s3)c2c1C attribute_measured="HepG2 cells mean TOX50" value_modifier== obs_value=36.31
compound=CN1CCN(Cc2ccc(-c3cc4c(Nc5ccc(OCc6cccc(F)c6)c(Cl)c5)ncnc4s3)[nH]2)CC1 attribute_measured="HepG2 cells mean TOX50" value_modifier== obs_value=10.98
compound="N#CC(c1ccc(Br)cc1)c1ccc2c(C(F)(F)F)cc(C(F)(F)F)nc2n1 (stereo not drawn)" attribute_measured="HepG2 cells mean TOX50" value_modifier== obs_value=2.32

Value source: paper PMC5442318
